- Test system: Spleen cells prepared from male LEW/CrlCrlj rats (B cell proliferation)
- assay_method_text: Rat B cell proliferation inhibition test (anti-rat IgM, [3H]thymidine)
- Assay type: cell-based
- condition_description: anti-rat IgM 3 μg/well, 48 hours culture
Where a name gives a salt, the structure may show the parent alone.
Give measured IC50 for each item. Keep answers brief.
Field format: number, assumed nM, no unit text.

// recorded IC50 for "CCOC(=O)N1CCN(c2ccc(CNc3nc(N4CCOCC4)cc(-n4c(C(F)F)nc5ccccc54)n3)cc2)CC1" : 10

// recorded IC50 for "O=C(CNC1CCOCC1)N[C@H]1CC[C@H](Oc2cc(-n3c(C(F)F)nc4ccccc43)nc(N3CCOCC3)n2)CC1" : 1.7

// recorded IC50 for "COC(=O)N1CCC(C(=O)N2CC[C@H](Nc3cc(-n4c(C(F)F)nc5ccccc54)nc(N4CCOCC4)n3)C2)CC1" : 1.2

// recorded IC50 for FC(F)c1nc2ccccc2n1-c1cc(N2CCOCC2)nc(NCC2CCN([C@H]3CC[C@H](F)CC3)CC2)n1 [Example 43-1, dihydrochloride] : 2.1

// recorded IC50 for "Cc1ccc2nc(C(F)F)n(-c3cc(N4CCOCC4)nc(NC[C@H]4CC[C@H](N5CCOCC5)CC4)n3)c2c1" : 1.5

// recorded IC50 for "COC(=O)N[C@@H]1CCN([C@H]2CC[C@H](Oc3cc(-n4c(C(F)F)nc5ccccc54)nc(N4CCOCC4)n3)CC2)C1=O" : 4.4

// recorded IC50 for "C[C@@H]1C[C@@H](N2CCC(CNc3nc(N4CCOCC4)cc(-n4c(C(F)F)nc5ccccc54)n3)CC2)C[C@H](C)O1" : 1.5

// recorded IC50 for "C[C@H]1COCCN1c1cc(-n2c(C(F)F)nc3ccccc32)nc(NCC2CCN(C3CCOCC3)CC2)n1" : 2.9

// recorded IC50 for "FC(F)c1nc2ccccc2n1-c1cc(N2CCOCC2)nc(NCC2CCN(C3CCOCC3)CC2)n1" : 2.9

// recorded IC50 for "CN(CC(C)(C)O)C12CCC(CNc3nc(N4CCOCC4)cc(-n4c(C(F)F)nc5ccccc54)n3)(CC1)CC2" : 2

// recorded IC50 for "FC(F)c1nc2ccccc2n1-c1cc(N2CCOCC2)nc(NCC2CCN(C3CCC(F)(F)CC3)CC2)n1" : 6.8
